Value source: patent US20050282743A1

# Classification annotations
Molecular target: T1, GST-DLG1 PDZ domain 2 (Homo sapiens), Q12959
T1 chain: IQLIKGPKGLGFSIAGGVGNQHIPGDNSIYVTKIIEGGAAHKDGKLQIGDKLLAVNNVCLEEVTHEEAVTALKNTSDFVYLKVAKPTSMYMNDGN
Test: G' assay; further: key of the grades not given here
MEASURE NAME: Classification (A450 class)

[[record]]
binder = "VDPNSPAAKKKYVSYNNLVI (modifications not checked) [GLUR7 (metabotropic glutamate receptor)]"
value_reported = 1

[[record]]
binder = "AGAVRTPLSQVNKVWDQSSV (modifications not checked) [CITRON protein]"
value_reported = 2

[[record]]
binder = "LHNQASVPLEPRPLRRESEI (modifications not checked) [Kir2.1 (inwardly rect. K+ channel)]"
value_reported = 1

[[record]]
binder = "PYSELNYETSHYPASPDSWV (modifications not checked) [catenin - delta 2]"
value_reported = 2

[[record]]
binder = "QISPGGLEPPSEKHFRETEV (modifications not checked) [TAX]"
value_reported = 5

[[record]]
binder = "GGGGGSGGGGGSGIESVKI (modifications not checked) [GLUR2 (glutamate receptor 2-modified)]"
value_reported = 1

[[record]]
binder = "TQGFPGPATWRRISSLESEV (modifications not checked) [NMDA Glutamate Receptor 2C (cysteine-free)]"
value_reported = 5

[[record]]
binder = "VPGALDYAAFSSALYGESDL (modifications not checked) [a-actinin 2]"
value_reported = 1

[[record]]
binder = "ISGTPTSTMVHGMTSSSSVV (modifications not checked) [Clasp-2]"
value_reported = 1

[[record]]
binder = "SFTSILTCHQRRTQRKETVA (modifications not checked) [GluR5-2 (rat)]"
value_reported = 2

[[record]]
binder = "VGTLLLERVIFPSVKIATLV (modifications not checked) [AdenoE4 typ9]"
value_reported = 5

[[record]]
binder = "KDITSDSENSNFRNEIQSLV (modifications not checked) [CD95]"
value_reported = 1

